Values compiled from patent US8420657B2.

measured-target: GST-JAK2(808-1132) (Homo sapiens, UniProt O60674)
Construct: GST-JAK2(808-1132); purchased Invitrogen (Carlsbad, USA) #4288
Sequence (O60674 808-1132): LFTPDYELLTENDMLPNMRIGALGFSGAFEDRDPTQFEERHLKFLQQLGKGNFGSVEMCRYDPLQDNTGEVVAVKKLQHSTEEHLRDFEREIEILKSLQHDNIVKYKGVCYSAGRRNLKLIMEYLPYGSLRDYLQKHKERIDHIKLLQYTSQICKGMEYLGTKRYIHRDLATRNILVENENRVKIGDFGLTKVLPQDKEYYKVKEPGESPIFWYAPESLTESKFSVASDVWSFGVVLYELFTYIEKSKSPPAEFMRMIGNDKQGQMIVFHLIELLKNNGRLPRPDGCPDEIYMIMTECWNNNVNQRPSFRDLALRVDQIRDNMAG
test: JAK2 kinase assay (Caliper mobility shift, LabChip 3000)
Type: biochemical
test-readout: pIC50
Conceptually, pIC50 converts a concentration in mol/L into minus its log10.

Request: What does the record list as pIC50 for O=S1(=O)CCN(Cc2c(F)cc(-n3ccc4cnc(Nc5ccncc5)nc43)cc2F)CC1 [Example 183] ?
Result: 8.48

Request: Also CCN1CCN(Cc2ccc(-n3ccc4cnc(Nc5ccc(OC(C)C)cc5)nc43)cc2F)CC1 [Example 106] ?
Result: 7.48

Request: Also CC(C)Oc1ccc(Nc2ncc3ccn(-c4ccc(CN5CCCNCC5)c(F)c4)c3n2)cc1 [Example 108] ?
Result: 8.18

====

Provide the recorded pIC50 for the entries that follow.
measured-target: GST-JAK2(808-1132) (Homo sapiens, UniProt O60674)
Construct: GST-JAK2(808-1132); purchased Invitrogen (Carlsbad, USA) #4288
test: JAK2 kinase assay (Caliper mobility shift, LabChip 3000)
Assay type: biochemical
Conceptually, pIC50 converts a concentration in mol/L into minus its log10.

Request: What does the record list as pIC50 for "CS(=O)(=O)c1ccc(-n2ccc3cnc(Nc4cccc(C(=O)N5CCOCC5)c4)nc32)cc1" ?
Result: 7.85

Request: Also "Cc1ccc(Nc2ncc3cc(C)n(-c4ccc(CN5CCOCC5)c(F)c4)c3n2)cc1C" ?
Result: 6.53

Request: Also C[C@@H]1CN[C@@H](C)CN1c1ccc(Nc2ncc3ccn(-c4ccc(S(C)(=O)=O)cc4)c3n2)cn1 (racemic) ?
Result: 8.14

Request: Also "Cc1ccc(Nc2ncc3ccn(-c4ccc(C(=O)N5CCOCC5)c(F)c4)c3n2)cc1CN1CCNC(C)(C)C1" ?
Result: 6.96

Request: Also "Cn1cc(Nc2ncc3ccn(-c4cc(F)c(C(=O)N5CCOCC5)c(F)c4)c3n2)cn1" ?
Result: 8.27

Request: Also "CS(=O)(=O)c1ccc(-n2ccc3cnc(Nc4ccc5c(c4)OCO5)nc32)cc1" ?
Result: 8.07

Request: Also CN1CCN(c2ccc(Nc3ncc4ccn(-c5ccc(C(O)C6CC6)cc5)c4n3)cn2)CC1 (stereo not drawn) ?
Result: 8.08

Request: Also "CC(C)(C)NS(=O)(=O)c1ccc(-n2ccc3cnc(Nc4ccc(OCCN5CCCC5)cc4)nc32)cc1" ?
Result: 8.49

Request: Also "COc1cc(Nc2ncc3ccn(-c4ccc(C(=O)N5CCOCC5)c(F)c4)c3n2)ccc1C" ?
Result: 8.31

====

measured-target: GST-JAK2(808-1132) (Homo sapiens, UniProt O60674)
Construct: GST-JAK2(808-1132); purchased Invitrogen (Carlsbad, USA) #4288
test: JAK2 kinase assay (Caliper mobility shift, LabChip 3000)
Type: biochemical
Provide the recorded IC50 for the entries that follow.
Your answer is read as nM, so omit the unit and give the number.

Request: What does the record list as IC50 for Cc1ccc(Nc2ncc3ccn(-c4ccc(C[S+](C)[O-])cc4)c3n2)cc1 (centres unmarked) ?
Result: 11

Request: Also "Fc1cc(-n2ccc3cnc(Nc4ccc(N5CCNC6(CC6)C5)nc4)nc32)cc(F)c1CN1CCOCC1" ?
Result: 4.3

Request: Also "Cc1ccc(Nc2ncc3ccn(-c4ccc(CC(=O)N5CCS(=O)(=O)CC5)c(F)c4)c3n2)cc1C" ?
Result: 13

Request: Also Cc1ccc(Nc2ncc3ccn(-c4ccc(C(=O)N5CCOCC5)c(F)c4)c3n2)cc1CN1C[C@H](C)NC[C@H]1C (racemic) ?
Result: 11

Request: Also "Cc1ccc(Nc2ncc3ccn(-c4ccc(CS(C)(=O)=O)cc4)c3n2)cc1" ?
Result: 4.5

Request: Also "Cc1ccc(Nc2ncc3ccn(-c4ccc(C(=O)N5CCN(CCO)CC5)cc4)c3n2)cc1C" ?
Result: 17.5

====

measured-target: GST-JAK2(808-1132) (Homo sapiens)
Construct: GST-JAK2(808-1132); purchased Invitrogen (Carlsbad, USA) #4288
test: JAK2 kinase assay (Caliper mobility shift, LabChip 3000)
Format: biochemical
Provide the recorded pIC50 for the entries that follow.
Conceptually, pIC50 converts a concentration in mol/L into minus its log10.

Request: What does the record list as pIC50 for O=C(c1ccc(Nc2ncc3ccn(-c4cc(F)c(CN5CCCC5)c(F)c4)c3n2)cc1)N1CCOCC1 [Example 178] ?
Result: 8.04

Request: Also C[C@@H]1CN(c2ncc(Nc3ncc4ccn(-c5cc(F)c(CN6CCOCC6)c(F)c5)c4n3)cc2C#N)C[C@H](C)N1 [Example 490] ?
Result: 8.47

Request: Also CCOc1ccc(Nc2ncc3cc(C)n(-c4ccc(CN5CCOCC5)c(F)c4)c3n2)cc1OCC [Example 168] ?
Result: 7.52

Request: Also O=C(c1ccc(Nc2ncc3ccn(-c4cc(F)c(CN5CCOCC5)c(F)c4)c3n2)cn1)N1CCOCC1 [Example 195] ?
Result: 8.28

Request: Also CN1CCN(Cc2ccc(Nc3ncc4ccn(-c5cc(F)c(CN6CCOCC6)c(F)c5)c4n3)cn2)CC1 [Example 472] ?
Result: 8.44

Request: Also Cc1ccc(Nc2ncc3ccn(-c4cc(F)c(C(=O)N5CCOCC5)c(F)c4)c3n2)cn1 [Example 219] ?
Result: 8.11

Request: Also O=C(c1c(F)cc(-n2ccc3cnc(Nc4ccc(CN5CCNC6(CC6)C5)cc4)nc32)cc1F)N1CCOCC1 [Example 257] ?
Result: 8.00

Request: Also CC(C)Oc1ccc(Nc2ncc3ccn(-c4ccc(C(=O)N5CCOCC5)c(F)c4)c3n2)cn1 [Example 226] ?
Result: 7.98

Request: Also CC(C)(C)OC(=O)N1CCCC1c1ccc(Nc2ncc3ccn(-c4ccc(S(C)(=O)=O)cc4)c3n2)cc1 (stereo not drawn) [Example 46] ?
Result: 7.42

Request: Also Cc1cc(Nc2ncc3ccn(-c4ccc(CN5CCOCC5)c(F)c4)c3n2)ccc1F [Example 127] ?
Result: 7.98

Request: Also Cn1cc(Nc2ncc3ccn(-c4cc(F)c(CN5CCOCC5)c(F)c4)c3n2)cn1 [Example 247] ?
Result: 8.43

Request: Also COCc1ccc(Nc2ncc3ccn(-c4cc(F)c(CN5CCCC5)c(F)c4)c3n2)cc1 [Example 179] ?
Result: 7.98

Request: Also Cc1ccc(Nc2ncc3ccn(-c4ccc(S(=O)(=O)NC(C)(C)C)cc4)c3n2)cc1CN1C[C@@H](C)N[C@@H](C)C1 [Example 387] ?
Result: 8.02

Request: Also Fc1cc(-n2ccc3cnc(Nc4ccc(OCCN5CCOCC5)nc4)nc32)cc(F)c1CN1CCOCC1 [Example 513] ?
Result: 8.34

Request: Also Cc1ccc(Nc2ncc3ccn(-c4ccc(C(=O)N5CCOCC5)c(F)c4)c3n2)cc1CN1CCNCC1 [Example 336] ?
Result: 8.44

Request: Also CCN1CCCC1CNC(=O)c1ccc(-n2ccc3cnc(Nc4ccc(F)cc4)nc32)cc1 (stereo not drawn) [Example 63] ?
Result: 7.14

Request: Also Fc1cc(-n2ccc3cnc(Nc4ccccc4)nc32)cc(F)c1CN1CCOCC1 [Example 208] ?
Result: 8.32

Request: Also Cc1ccc(Nc2ncc3ccn(-c4cc(F)c(CN5CCNC(=O)C5)c(F)c4)c3n2)cc1C [Example 312] ?
Result: 7.89

====

measured-target: GST-JAK2(808-1132) (Homo sapiens, UniProt O60674)
Construct: GST-JAK2(808-1132); purchased Invitrogen (Carlsbad, USA) #4288
test: JAK2 kinase assay (Caliper mobility shift, LabChip 3000)
Assay type: biochemical
test-readout: pIC50
Conceptually, pIC50 converts a concentration in mol/L into minus its log10.

Request: API: value(readout= pIC50, system= GST-JAK2(808-1132) (Homo sapiens, UniProt O60674), query= "Cc1ccc(Nc2ncc3ccn(-c4ccc(C(=O)N5CCOCC5)c(F)c4)c3n2)cc1CN1C[C@@H](C)N[C@@H](C)C1" )
Result: 8.08

Request: Also "O=C(c1ccc(-n2ccc3cnc(Nc4ccc(CN5CCN(C6CC6)CC5)cc4)nc32)cc1F)N1CCOCC1" ?
Result: 7.85

Request: Also "CC(C)Oc1ccc(Nc2ncc3ccn(-c4ccc(C(=O)N5CCOCC5)cc4)c3n2)cn1" ?
Result: 7.72

Request: Also "CCN1CCN(Cc2c(F)cc(-n3ccc4cnc(Nc5ccc(C)c(Cl)c5)nc43)cc2F)CC1" ?
Result: 6.94

Request: Also "CC(=O)c1ccc(-n2ccc3cnc(Nc4ccc(F)cc4)nc32)cc1" ?
Result: 8.09

Request: Also "CS(=O)(=O)c1ccc(-n2ccc3cnc(Nc4ccc(CN5CCCCC5)cc4)nc32)cc1" ?
Result: 8.51

Request: Also "O=C(Cc1ccc(-n2ccc3cnc(Nc4ccc(C(F)(F)F)cc4)nc32)cc1)N1CCOCC1" ?
Result: 8.33

Request: Also "Cc1ccc(Nc2ncc3ccn(-c4cc(F)c(CN5CCOCC5)c(F)c4)c3n2)cc1Cn1cc(CO)nn1" ?
Result: 8.37
